- Experimental Target: T1, mouse TNC rCd4-His-FBG (rat; mouse, UniProt P05540 207-386)
- T1 construct: domain: domains 3 and 4; also called Mu TNC; mouse TNC FBG
- T1 sequence: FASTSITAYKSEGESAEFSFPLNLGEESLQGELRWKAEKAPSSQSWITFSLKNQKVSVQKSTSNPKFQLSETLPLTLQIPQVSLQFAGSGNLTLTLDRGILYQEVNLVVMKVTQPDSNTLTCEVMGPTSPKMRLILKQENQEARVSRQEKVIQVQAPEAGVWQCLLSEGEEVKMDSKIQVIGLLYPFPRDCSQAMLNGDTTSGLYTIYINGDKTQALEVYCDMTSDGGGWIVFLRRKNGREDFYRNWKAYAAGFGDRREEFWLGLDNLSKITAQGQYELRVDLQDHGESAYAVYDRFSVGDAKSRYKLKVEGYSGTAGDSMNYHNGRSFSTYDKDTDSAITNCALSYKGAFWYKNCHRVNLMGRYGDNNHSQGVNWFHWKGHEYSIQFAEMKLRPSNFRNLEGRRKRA
- Measurement Description: anti-FLAG capture DELFIA ELISA, scFv supernatant, biotinylated mouse rCd4-His-FBG
Reported Metric: fold improvement for mouse FBG binding (against the parent B12)

165_13_B1 scFv (scFv, V domains shown, VH CDR3 VMSSMEDAFDI; not shown: scFv linker, domain order, and the tags of the pSANG10 vector (FLAG and others)) VH: QVQLVESGGGLVQPGRSLRLSCAASGFTFDDYAMHWVRQAPGKGLEWVSGISGSGGSTYYADSVKGRFTISRDNAKNSLYLQMNSLRAEDTALYYCAKVMSSMEDAFDIWGQGTMVTVSS VL: DIQMTQSPASLPTPVGDRVTITCRASQYIQGFLNWYQQKPGKAPKLLIYDASNLETGVPSRFSGSGSGTDFTLTISSLQPEDFATYYCQQSYSTPQTFGQGTKVDIK; ≥ 4 fold
180_11_F5 scFv (scFv, V domains shown, not shown: small tags and cut ends, VH CDR3 VMRTGLDTFDI) VH: QVQLVESGGGLVQPGRSLRLSCAASGFTFDDYAMHWVRQAPGKGLEWVSGISGSGGSTYYADSVKGRFTISRDNAKNSLYLQMNSLRAEDTALYYCAKVMRTGLDTFDIWGQGTMVTVSS VL: DIQMTQSPASLPTPVGDRVTITCRASQYIQGFLNWYQQKPGKAPKLLIYDASNLETGVPSRFSGSGSGTDFTLTISSLQPEDFATYYCQQSYSTPQTFGQGTKVDIK; ≥ 4 fold
165_13_A4 scFv (scFv, V domains shown, VH CDR3 DKYPVLDTFDI; not shown: scFv linker, domain order, and the tags of the pSANG10 vector (FLAG and others)) VH: QVQLVESGGGLVQPGRSLRLSCAASGFTFDDYAMHWVRQAPGKGLEWVSGISGSGGSTYYADSVKGRFTISRDNAKNSLYLQMNSLRAEDTALYYCAKDKYPVLDTFDIWGQGTMVTVSS VL: DIQMTQSPASLPTPVGDRVTITCRASQYIQGFLNWYQQKPGKAPKLLIYDASNLETGVPSRFSGSGSGTDFTLTISSLQPEDFATYYCQQSYSTPQTFGQGTKVDIK; ≥ 4 fold

Record summary for 165_13_D4 scFv (scFv, V domains shown, VH CDR3 GTVGEGDTFDI; not shown: scFv linker, domain order, and the tags of the pSANG10 vector (FLAG and others)) VH: QVQLVESGGGLVQPGRSLRLSCAASGFTFDDYAMHWVRQAPGKGLEWVSGISGSGGSTYYADSVKGRFTISRDNAKNSLYLQMNSLRAEDTALYYCAKGTVGEGDTFDIWGQGTMVTVSS VL: DIQMTQSPASLPTPVGDRVTITCRASQYIQGFLNWYQQKPGKAPKLLIYDASNLETGVPSRFSGSGSGTDFTLTISSLQPEDFATYYCQQSYSTPQTFGQGTKVDIK : reported fold improvement for mouse FBG binding (against the parent B12) = ≥ 4 fold
